# ASSAY INFO: qHTS screen for small molecules that inhibit ELG1-dependent DNA repair in human embryonic kidney (HEK293T) cells expressing luciferase-tagged ELG1; further: nearly all actives have a fitted effect of over 55% in size
# MEASUREMENT CONDITIONS: HEK293T ELG1-luciferase reporter, luminescence, 16 h, DNA damage induced by 5-fluorouridine; series mostly up to 46.1 µM
The whole screen tested about 330,000 compounds, of which about 7,700 (2.3%) were called active. Not shown: some 26% with an inconclusive outcome. The call rests on the fitted dose curve; in most records, active means well fitted inhibition curve with a large enough effect; inconclusive means small, poorly fitted or top-dose-only effect, or effect the other way; inactive means flat fitted curve, though single readings scatter. For the sample, actives were picked, then their nearest neighbours and some compounds at random.
Allowed answers: y (active), n (inactive)

// return assay outcome for CCOc1ccc(C(C(=O)NC2CCCC2)N(C(=O)c2snc(C(N)=O)c2N)C2CCCC2)cc1 (stereo not given)
n

Given Cc1cccc(N(C(=O)c2sc(C)nc2C)C(C(=O)NCC2CCCO2)c2ccccc2)c1 (stereo not given) , state the outcome it received in this test.
n

Each compound tested received a call. Report the one for `Cc1cccc(C(=O)N[C@H](C(=O)NCc2cccs2)C(C)C)c1` .
n

Record request — test call for `Cc1ccc(N(Cc2ccc(C(=O)Nc3ccccc3C(=O)NCc3ccco3)cc2)S(C)(=O)=O)cc1C`
y

Record lookup: outcome of this test for CN(C(=O)CSc1nnc(-c2ccc3c(c2)OCO3)o1)C1CCS(=O)(=O)C1 (stereo not given) ?
n

Recorded test call requested for CC(Sc1ccccc1F)C(=O)Nc1cccc(S(=O)(=O)N2CCOCC2)c1 (stereo not given)
n

Which result was noted for this compound in the test: `CCN(CC(=O)NC(C)C)C(=O)c1cc(S(=O)(=O)N2CCCCC2)ccc1N1CCCCC1`
n

What did this assay record as the result for `Cc1cccc(Nc2ccccc2C(=O)NCc2ccco2)c1C` ?
n

Any idea what this test logged for `COc1ccc(C=C(C#N)C#N)c(CSc2ccccn2)c1` ?
n

Which outcome did this test record for the compound CCOC(=O)C1CCCN(C(=O)CSc2nnc3nc(C)cc(C)n23)C1 (stereo not given) ?
n

###

# ASSAY INFO: qHTS screen for small molecules that inhibit ELG1-dependent DNA repair in human embryonic kidney (HEK293T) cells expressing luciferase-tagged ELG1; further: nearly all actives have a fitted effect of over 55% in size
# MEASUREMENT CONDITIONS: HEK293T ELG1-luciferase reporter, luminescence, 16 h, DNA damage induced by 5-fluorouridine; series mostly up to 46.1 µM
Among all 330,000 compounds or so, about 7,700 (2.3%) were called active. Another 26% or so got no clear call; they are omitted. Calls follow the shape of the dose curve; as a rule, active = well fitted inhibition curve with a large enough effect; inconclusive = small, poorly fitted or top-dose-only effect, or effect the other way; inactive = flat fitted curve, though single readings scatter. Only a selection was taken, and actives are over-represented in it overall.
API: response.call in y = active, n = inactive

Field: outcome | Entry: `C#CCOc1ccccc1/C=C1/C(=O)ON=C1C`
n

Called result for `CN(C)c1cc[n+](Cc2ccccc2)cc1`
y

# lookup: test call for `Oc1ccc2ccccc2c1C=Nc1ccccc1`
n

Answer briefly: the call reported for CC1Oc2ccccc2N(Cc2cccnc2)C1=O (stereo not drawn) in this assay.
n

I'd appreciate the recorded outcome for `Oc1ccc(N=Cc2c(O)ccc3ccccc23)cc1` from this test.
n

Test call for this compound, please: `Cc1ccc2nc(SCC(=O)Nc3cccc4ccccc34)nc(=O)n2c1`
n

Any idea what this test logged for `O=C(CCCC(=O)N1CCN(c2cccc(Cl)c2)CC1)c1ccccc1` ?
n

What did this assay record as the result for `CC(C)C(=O)NC(=S)Nc1ccccc1F` ?
n

What call does the record list for `Oc1ccc2ccccc2c1N=Nc1nccs1` ?
y

Per the records of this test, what outcome belongs to `CCCCC(=O)NNC(=S)NC(=O)C(c1ccccc1)c1ccccc1` ?
n

Can you look up the reported call for `O=C1COc2ccc(C(=O)CSc3ccc(Br)cc3)cc2N1` for me?
n

Please indicate how the test categorized `CCOCCn1[nH]c2ccccc2c1=O` .
n

Identify the outcome logged in this assay for the compound shown: `CC(C)C(=O)Nc1cccc(NC(=S)NC(=O)C(c2ccccc2)c2ccccc2)c1`
y
